Exercise: state measured U87MG IC50 for each of the compounds provided.
Test system: U87MG (Human malignant glioblastoma cell)
Experiment: In vitro anti-tumor cellular activity (MTT), U87MG
Assay type: cell-based
Details: 72 hours
Give bare numbers, in µg/mL.

Illustrative cases are given below, each with its answer.
{"smiles_structure": "COc1cc2c(Oc3ccc(NC(=O)N/N=C(\\C)c4ccccc4)cc3F)ccnc2cc1OCCCN1CCCCC1", "U87MG IC50 [µg/mL]": 0.24}
{"smiles_structure": "COc1cc2c(Oc3ccc(NC(=O)N/N=C/c4ccccc4)cc3F)ccnc2cc1OCCCN1CCOCC1", "U87MG IC50 [µg/mL]": 0.33}
{"smiles_structure": "COc1cc2c(Oc3ccc(C=NNC(=O)Nc4cccc(Br)c4)cc3F)ccnc2cc1OCCCN1CCOCC1", "U87MG IC50 [µg/mL]": 1.8}
{"smiles_structure": "COc1cc2c(Oc3ccc(NC(=S)N/N=C/c4ccccc4)cc3F)ccnc2cc1OCCCN1CCOCC1", "U87MG IC50 [µg/mL]": 0.90}
{"smiles_structure": "COc1cc2c(Oc3ccc(C=NNC(=O)Nc4ccc(Cl)c(C(F)(F)F)c4)cc3F)ccnc2cc1OCCCN1CCCCC1", "U87MG IC50 [µg/mL]": 1.2}

Please look at the items below and tell me U87MG IC50 for each one, in order.
1. COc1cc2c(Oc3ccc(NC(=O)N/N=C/c4ccccc4)cc3F)ccnc2cc1OCCCN1CCC(C)CC1
2. COc1cc2c(Oc3ccc(/C=N/NC(=S)Nc4cccc(Br)c4)cc3F)ccnc2cc1OCCCN1CCOCC1

Result block:
[0.31, 3.4]
